Data provenance: ChEMBL document CHEMBL5390237

# measurement.target: Histone deacetylase 2 (Homo sapiens, UniProt Q92769)
# Sequence (Q92769 whole entry): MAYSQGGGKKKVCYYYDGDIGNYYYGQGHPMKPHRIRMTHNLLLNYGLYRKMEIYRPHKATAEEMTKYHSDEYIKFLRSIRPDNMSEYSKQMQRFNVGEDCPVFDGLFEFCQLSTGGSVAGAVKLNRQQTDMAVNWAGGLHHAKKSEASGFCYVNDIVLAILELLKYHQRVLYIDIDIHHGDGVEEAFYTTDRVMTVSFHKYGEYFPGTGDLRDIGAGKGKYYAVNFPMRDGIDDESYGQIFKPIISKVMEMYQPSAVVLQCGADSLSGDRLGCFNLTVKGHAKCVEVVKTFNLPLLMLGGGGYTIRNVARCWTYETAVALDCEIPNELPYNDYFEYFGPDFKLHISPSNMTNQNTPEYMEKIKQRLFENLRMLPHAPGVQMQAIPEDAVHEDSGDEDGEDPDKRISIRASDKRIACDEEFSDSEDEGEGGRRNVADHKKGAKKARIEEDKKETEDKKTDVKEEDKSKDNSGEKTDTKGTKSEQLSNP
# test.protocol: Inhibition of full-length recombinant human C-terminal GST tagged HDAC2 expressed in Sf9 insect cells using aminoluciferin peptide substrate at 100 nM preincubated for 3 hrs followed by substrate addition and measured after 30 mins by HDAC-Glo I/II chemiluminescence assay
# condition.description: time 3.5 hrs
For each entry below, report its inhibition value.
Express the result in % but write the number alone.

Req: Given Nc1ccc(-c2cccs2)cc1NC(=O)c1ccc(-c2cn(Cc3cccc4ccccc34)nn2)cc1 , state its recorded inhibition.
Resp: 14

Req: Given Nc1ccc(-c2cccs2)cc1NC(=O)c1cccc(-c2cn(CCN3CCc4ccccc4C3)nn2)c1 , state its recorded inhibition.
Resp: 20

Req: Given Nc1ccc(-c2ccc(F)cc2)cc1NC(=O)CCc1cn(CCc2cccc(C(F)(F)F)c2)nn1 , state its recorded inhibition.
Resp: 11

Req: Given Nc1ccc(-c2cccs2)cc1NC(=O)c1ccc(-c2cn(CC(=O)Nc3ccc(F)cc3)nn2)cc1 , state its recorded inhibition.
Resp: 50

Req: Given Nc1ccc(-c2ccccc2)cc1NC(=O)c1cn(Cc2cccc(C(=O)O)c2)nn1 , state its recorded inhibition.
Resp: 0

Req: Given Nc1ccc(-c2cccs2)cc1NC(=O)c1ccc(-c2cn(Cc3cccc(-c4ccccc4)c3)nn2)cc1 , state its recorded inhibition.
Resp: 0

Req: Given Nc1ccc(-c2cccnc2)cc1NC(=O)CCc1cn(C[S+]([O-])c2ccccc2)nn1 (configuration not stated) , state its recorded inhibition.
Resp: 0

* * *

For each entry below, report its inhibition value.
# measurement.target: Histone deacetylase 2 (Homo sapiens, UniProt Q92769)
# test.protocol: Inhibition of full-length recombinant human C-terminal GST tagged HDAC2 expressed in Sf9 insect cells using aminoluciferin peptide substrate at 100 nM preincubated for 3 hrs followed by substrate addition and measured after 30 mins by HDAC-Glo I/II chemiluminescence assay
# condition.description: time 3.5 hrs
Express the result in % but write the number alone.

Req: Given Nc1ccc(-c2ccsc2)cc1NC(=O)c1cn(CCc2ccccc2C(F)(F)F)nn1 , state its recorded inhibition.
Resp: 0

Req: Given Nc1ccc(-c2ccccc2)cc1NC(=O)c1cn(CCc2ccccc2Cl)nn1 , state its recorded inhibition.
Resp: 0

Req: Given Nc1ccc(-c2cccs2)cc1NC(=O)c1ccc(-c2cn(CCN3CCOCC3)nn2)cc1 , state its recorded inhibition.
Resp: 75

Req: Given COc1ccc(-n2cc(CCC(=O)Nc3cc(-c4ccsc4)ccc3N)nn2)cc1 , state its recorded inhibition.
Resp: 12

Req: Given Nc1ccc(-c2ccc(F)cc2)cc1NC(=O)CCc1cn(CCC23CC4CC(CC(C4)C2)C3)nn1 , state its recorded inhibition.
Resp: 0

Req: Given Nc1ccc(-c2cccs2)cc1NC(=O)CCc1cn(Cc2ccc(OC(F)(F)F)cc2)nn1 , state its recorded inhibition.
Resp: 17

Req: Given Nc1ccc(-c2ccccc2)cc1NC(=O)CCc1cn(Cc2ccc(OC(F)(F)F)cc2)nn1 , state its recorded inhibition.
Resp: 0

Req: Given Nc1ccc(-c2cccs2)cc1NC(=O)CCc1cn(Cc2cccc(C(=O)O)c2)nn1 , state its recorded inhibition.
Resp: 3

Req: Given Nc1ccc(-c2cccs2)cc1NC(=O)CCc1cn(CCCCCCCC(=O)O)nn1 , state its recorded inhibition.
Resp: 4

* * *

# measurement.target: Histone deacetylase 2 (Homo sapiens)
# test.protocol: Inhibition of full-length recombinant human C-terminal GST tagged HDAC2 expressed in Sf9 insect cells using aminoluciferin peptide substrate at 100 nM preincubated for 3 hrs followed by substrate addition and measured after 30 mins by HDAC-Glo I/II chemiluminescence assay
# condition.description: time 3.5 hrs
measured.quantity: inhibition (%)
Express the result in % but write the number alone.

Req: Given COc1ccccc1CCn1cc(-c2ccc(C(=O)Nc3cc(-c4cccs4)ccc3N)s2)nn1 , state its recorded inhibition.
Resp: 20

Req: Given Nc1ccc(-c2ccsc2)cc1NC(=O)CCc1cn(Cc2cccc3ccccc23)nn1 , state its recorded inhibition.
Resp: 2

Req: Given Nc1ccc(-c2cccs2)cc1NC(=O)c1cn(CCCCCCCC(=O)O)nn1 , state its recorded inhibition.
Resp: 2

Req: Given Nc1ccc(-c2cccs2)cc1NC(=O)c1cn(CCC23CC4CC(CC(C4)C2)C3)nn1 , state its recorded inhibition.
Resp: 2
